Classify as follows. Reported melting point greater than or equal to 200 °C: yes (1). Reported melting point below: no (0).

Illustrative cases are given below, each with its answer.
1. Fc1ccc(-n2cnc3ccc(-c4ccnn4-c4ccc(C(F)(F)F)cc4)cc32)cc1; no (0)
2. Fc1ccc(-n2cnc3ccc(-c4ccnn4-c4ccc(Cl)cc4)cc32)c(F)c1; no (0)
3. Fc1ccc(-n2nccc2-c2ccc3ncn(-c4ccc(Cl)cc4)c3c2)cc1; no (0)
4. CS(=O)(=O)c1ccc(-n2cnc3ccc(-c4ccnn4-c4ccc(Cl)cc4)cc32)cc1; yes (1)
5. Clc1ccc(-n2nccc2-c2ccc3ncn(-c4ccc(Cl)cc4)c3c2)cc1; no (0)

Exam item: decide whether the reported melting point for Fc1ccc(-n2cnc3ccc(-c4ccnn4-c4ccc(Cl)cc4)cc32)cc1 is at least 200 °C.
no (0)

// provenance: patent US9365550B2
